- Tested on: MDA-MB-231 breast
- Assay procedure: NCI tumour cell line growth inhibition, 48 h
Quantity kind: TGI

Compound	Target of assay	TGI
Cc1cc(C)n2nc3nc(N)c(C#N)c(-c4ccccc4)c3c2n1	MDA-MB-231 breast	> 100 µM

For each of the compounds below, state TGI.
1. COc1cc(C(=O)n2c3ccc(Br)cc3c3nc4ccccc4nc32)cc(OC)c1OC
2. OCC1OC(c2cccc3cc(O)c(O)cc23)CC1O (stereo unspecified)
3. CN1CCN(C(=O)CCNC(=O)Cc2ccc(C(=O)c3ccccc3)cc2)CC1
4. O=C(O)CCC(=O)c1ccc[nH]1
5. CC(C)(Br)C(Br)CCC1(C2CO2)CO1 (stereo unspecified)

1: > 100 µM; 2: > 100 µM; 3: > 100 µM; 4: > 100 µM; 5: > 5 µM
